Assay: protein stability index of a GFP-peptide fusion (yeast GPS) (PSI 1-4); higher = more stable; sorted into four equal gates, so the index is relative within each strain
Settings: doa10∆
Reported protein stability index values follow for various sequences
PROPERTY NAME: protein stability index

1. LSRGDDEVTIRRTVGLK [SMC3]; 3.17
2. QLGLQTVIRGNSIISLE [SMX2]; 2.22
3. QGKHTKFENDELAESTT [LRP1]; 3.75
4. LSTDATSADLKSKAEEL [UBP6]; 3.17
5. LQIVNQLPANMVHLYSI [RPC17]; 1.85
6. TEYRGTLVSTDNYFNLQ [SMX3]; 1.83
7. SAIRKCVRVQLIKNGKK [RPS23A]; 2.91
8. LVQQIQKETQKVTKIWS [PRP28]; 2.39
